- Tested on: NCI-H1975
- procedure.details: relative viability (nuclei count vs DMSO), 5 days (fraction); higher = more cells survive
- test.settings: first compound 0.1265 µM
# maps each entry to its relative viability
readout.type: relative viability

>>> observed_measurement("COc1cc(N2CCC(C(N)=O)CC2)ccc1Nc1nc(N)c(Cl)c(Nc2ccccc2S(=O)(=O)C(C)C)n1 [HG-5-88-01] + Cc1nc(Nc2ncc(C(=O)Nc3c(C)cccc3Cl)s2)cc(N2CCN(CCO)CC2)n1 [Dasatinib] (partner 0.075 µM)")
0.352
>>> observed_measurement("COc1cc(N2CCC(C(N)=O)CC2)ccc1Nc1nc(N)c(Cl)c(Nc2ccccc2S(=O)(=O)C(C)C)n1 [HG-5-88-01] + COc1cccc2cc(-c3nc([C@H]4CC[C@H](C(=O)O)CC4)n4ncnc(N)c34)[nH]c12 [OSI-027] (partner 0.5 µM)")
0.803
>>> observed_measurement("Clc1ccc(Nc2nnc(Cc3ccncc3)c3ccccc23)cc1 [Vatalanib] + Nc1ncn([C@H]2C[C@H](O)[C@@H](CO)O2)c(=O)n1 [Decitabine] (partner 2 µM)")
0.378
>>> observed_measurement("Clc1ccc(Nc2nnc(Cc3ccncc3)c3ccccc23)cc1 [Vatalanib] + CS(=O)(=O)CCNCc1ccc(-c2ccc3ncnc(Nc4ccc(OCc5cccc(F)c5)c(Cl)c4)c3c2)o1 [Lapatinib] (partner 2 µM)")
0.827
>>> observed_measurement("COc1cc(N2CCC(C(N)=O)CC2)ccc1Nc1nc(N)c(Cl)c(Nc2ccccc2S(=O)(=O)C(C)C)n1 [HG-5-88-01] + COc1cc2c(Oc3ccc(NC(=O)C4(C(=O)Nc5ccc(F)cc5)CC4)cc3F)ccnc2cc1OCCCN1CCOCC1 [Foretinib] (partner 0.25 µM)")
0.923
>>> observed_measurement("COc1cc(N2CCC(C(N)=O)CC2)ccc1Nc1nc(N)c(Cl)c(Nc2ccccc2S(=O)(=O)C(C)C)n1 [HG-5-88-01] + N=C(N)NC(=N)NCCc1ccccc1 [Phenformin] (partner 250 µM)")
0.416
>>> observed_measurement("COc1cc(N2CCC(C(N)=O)CC2)ccc1Nc1nc(N)c(Cl)c(Nc2ccccc2S(=O)(=O)C(C)C)n1 [HG-5-88-01] + Nc1nc2[nH]cc(CCc3ccc(C(=O)N[C@@H](CCC(=O)O)C(=O)O)cc3)c2c(=O)[nH]1 [Pemetrexed] (partner 0.2 µM)")
0.296
>>> observed_measurement("Clc1ccc(Nc2nnc(Cc3ccncc3)c3ccccc23)cc1 [Vatalanib] + CC(C)C[C@H](NC(=O)[C@H](Cc1ccccc1)NC(=O)c1cnccn1)B(O)O [Bortezomib] (partner 0.002 µM)")
0.352

====

- Tested on: NCI-H2405
- procedure.details: relative viability (nuclei count vs DMSO), 5 days (fraction); higher = more cells survive
- test.settings: first compound 0.1265 µM
// reported relative viability per item
readout.type: relative viability

>>> observed_measurement("COc1cc(N2CCC(C(N)=O)CC2)ccc1Nc1nc(N)c(Cl)c(Nc2ccccc2S(=O)(=O)C(C)C)n1 [HG-5-88-01] + NC(=O)Nc1cc(-c2cccc(F)c2)sc1C(=O)N[C@H]1CCCNC1 [AZD7762] (partner 0.2 µM)")
0.659
>>> observed_measurement("Clc1ccc(Nc2nnc(Cc3ccncc3)c3ccccc23)cc1 [Vatalanib] + COc1cc2c(Oc3ccc(NC(=O)C4(C(=O)Nc5ccc(F)cc5)CC4)cc3F)ccnc2cc1OCCCN1CCOCC1 [Foretinib] (partner 0.25 µM)")
1.06
>>> observed_measurement("Clc1ccc(Nc2nnc(Cc3ccncc3)c3ccccc23)cc1 [Vatalanib] + O=C(CCCCCCC(=O)Nc1ccccc1)NO [Vorinostat] (partner 1 µM)")
0.938
>>> observed_measurement("COc1cc(N2CCC(C(N)=O)CC2)ccc1Nc1nc(N)c(Cl)c(Nc2ccccc2S(=O)(=O)C(C)C)n1 [HG-5-88-01] + O=C(CCCCCCC(=O)Nc1ccccc1)NO [Vorinostat] (partner 1 µM)")
1.06
>>> observed_measurement("C[C@@H]1CN(CC(=O)Nc2ccc3c(c2)Cc2cccc(-c4cc(=O)cc(N5CCOCC5)o4)c2S3)C[C@H](C)O1 + CC(=O)Nc1cccc(-n2c(=O)n(C3CC3)c(=O)c3c(Nc4ccc(I)cc4F)n(C)c(=O)c(C)c32)c1 [Trametinib] (partner 0.02 µM)")
0.651
